# Protocol Text: Inhibition of chymotrypsin like activity of human 20S proteasome
Measurement Kind: IC50 (nM)

- Compound: "COc1cc(N2CCC(c3nc(C(=O)Nc4nc5cc(C(=O)c6ccccc6)ccc5[nH]4)cs3)CC2)nc(OC)n1"
  Units Of Measure: "nM"
  Inequality Sign: ">"
  Value Measured: 3000
- Compound: "O=C(c1csc(C2CCN(c3ccc(C(F)(F)F)cc3)CC2)n1)N1CCN(c2cccc(C(F)(F)F)c2)CC1"
  Units Of Measure: "nM"
  Inequality Sign: "="
  Value Measured: 480
- Compound: "Cc1cc2nnc(C(=O)N3CCC(c4nc(C(=O)NC5CCN(Cc6ccccc6)C5)cs4)CC3)c(C)n2n1 (stereo not drawn)"
  Units Of Measure: "nM"
  Inequality Sign: "="
  Value Measured: 580

* * *

Attribute: EC50
# Protocol Text: Inhibition of NF-kappaB in A549 cells after 5 hrs by reporter gene assay
# Format: cell-based
# Measurement Parameters: Homo sapiens, A549, 5 h

- Smi: "O=C(c1csc(C2CCN(c3ccc(C(F)(F)F)cc3)CC2)n1)N1CCN(c2cccc(C(F)(F)F)c2)CC1"
  Units Of Measure: "nM"
  Inequality Sign: "="
  EC50: 20000
- Smi: "Cc1cc2nccc(N3CCC(c4nc(C(=O)Nc5nc6cc(C(=O)c7ccccc7)ccc6[nH]5)cs4)CC3)n2n1"
  Units Of Measure: "nM"
  Inequality Sign: "="
  EC50: 100
- Smi: "COC(=O)c1nc2nccc(N3CCC(c4nc(C(=O)Nc5nc6cc(C(=O)c7ccccc7)ccc6[nH]5)cs4)CC3)n2n1"
  Units Of Measure: "nM"
  Inequality Sign: "="
  EC50: 500
- Smi: "COc1nc(OC)nc(N2CCC(c3nc(C(=O)Nc4nc5cc(C(=O)c6ccccc6)ccc5[nH]4)cs3)CC2)n1"
  Units Of Measure: "nM"
  Inequality Sign: "="
  EC50: 800
- Smi: "O=C(c1ccccc1)c1ccc2[nH]c(NC(=O)c3csc(C4CCN(c5ccnc6ncnn56)CC4)n3)nc2c1"
  Units Of Measure: "nM"
  Inequality Sign: "="
  EC50: 100
- Smi: "COc1cc2ncnc(N3CCC(c4nc(C(=O)Nc5nc6cc(C(=O)c7ccccc7)ccc6[nH]5)cs4)CC3)c2cc1OC"
  Units Of Measure: "nM"
  Inequality Sign: "="
  EC50: 300
- Smi: "Cc1cc2nnc(C(=O)N3CCC(c4nc(C(=O)N5CCN(c6cccc(C(F)(F)F)c6)CC5)cs4)CC3)c(C)n2n1"
  Units Of Measure: "nM"
  Inequality Sign: ">"
  EC50: 20000
- Smi: "COc1cc(N2CCC(c3nc(C(=O)N4CCN(c5cccc(C(F)(F)F)c5)CC4)cs3)CC2)nc(OC)n1"
  Units Of Measure: "nM"
  Inequality Sign: "="
  EC50: 5000
- Smi: "COc1cccc(NC(=O)N2CCC(c3nc(C(=O)N4CCN(c5cccc(C(F)(F)F)c5)CC4)cs3)CC2)c1"
  Units Of Measure: "nM"
  Inequality Sign: "="
  EC50: 7200
- Smi: "COc1cc(N2CCC(c3nc(C(=O)Nc4nc5cc(C(=O)c6ccccc6)ccc5[nH]4)cs3)CC2)nc(OC)n1"
  Units Of Measure: "nM"
  Inequality Sign: "="
  EC50: 300

* * *

# Protocol Text: Inhibition of NF-kappaB in A549 cells after 5 hrs by reporter gene assay
# Type: cell-based
# Measurement Parameters: Homo sapiens, A549, 5 h

- Smi: "O=C(c1ccsc1)c1ccc2[nH]c(NC(=O)c3csc(C4CCN(c5ncnc6ccsc56)CC4)n3)nc2c1"
  Units Of Measure: "nM"
  EC50: 500
- Smi: "COc1nc(OC)nc(N2CCC(c3nc(C(=O)N4CCN(c5cccc(C(F)(F)F)c5)CC4)cs3)CC2)n1"
  Units Of Measure: "nM"
  EC50: 4700
- Smi: "O=C(c1ccccc1)c1ccc2[nH]c(NC(=O)c3csc(C4CCN(c5ccncc5[N+](=O)[O-])CC4)n3)nc2c1"
  Units Of Measure: "nM"
  EC50: 300
- Smi: "O=C(c1ccccc1)c1ccc2[nH]c(NC(=O)c3csc(C4CCN(c5ncnc6ccsc56)CC4)n3)nc2c1"
  Units Of Measure: "nM"
  EC50: 200
- Smi: "Cc1cc2nc(NC(=O)c3csc(C4CCN(c5ncnc6ccsc56)CC4)n3)[nH]c2cc1C"
  Units Of Measure: "nM"
  EC50: 300
- Smi: "Cc1cc2nc(NC(=O)c3csc(C4CCN(C(=O)c5ccccc5OC(F)(F)F)CC4)n3)[nH]c2cc1C"
  Units Of Measure: "nM"
  EC50: 3000
- Smi: "Cc1cc2nnc(C(=O)N3CCC(c4nc(C(=O)Nc5nc6cc(C(=O)c7ccccc7)ccc6[nH]5)cs4)CC3)c(C)n2n1"
  Units Of Measure: "nM"
  EC50: 900
- Smi: "O=C(Nc1cccc(F)c1)N1CCC(c2nc(C(=O)N3CCN(c4cccc(C(F)(F)F)c4)CC3)cs2)CC1"
  Units Of Measure: "nM"
  EC50: 3400
- Smi: "COc1nc(OC)nc(N2CCC(c3nc(C(=O)Nc4nc5cc(C(=O)c6ccsc6)ccc5[nH]4)cs3)CC2)n1"
  Units Of Measure: "nM"
  EC50: 400
- Smi: "N#Cc1ccc(CN2CCC(c3nc(C(=O)N4CCN(c5cccc(C(F)(F)F)c5)CC4)cs3)CC2)cc1"
  Units Of Measure: "nM"
  EC50: 8500
- Smi: "O=C(c1csc(C2CCN(S(=O)(=O)c3ccc(F)cc3Cl)CC2)n1)N1CCN(c2cccc(C(F)(F)F)c2)CC1"
  Units Of Measure: "nM"
  EC50: 20000
- Smi: "O=C(c1ccccc1)c1ccc2[nH]c(NC(=O)c3csc(C4CCN(c5cc(C(F)(F)F)ncn5)CC4)n3)nc2c1"
  Units Of Measure: "nM"
  EC50: 500
- Smi: "O=C(c1csc(C2CCN(S(=O)(=O)c3cccs3)CC2)n1)N1CCN(c2cccc(C(F)(F)F)c2)CC1"
  Units Of Measure: "nM"
  EC50: 20000
- Smi: "O=C(c1ccccc1)c1ccc2[nH]c(NC(=O)c3csc(C4CCN(C(=O)c5ccccc5OC(F)(F)F)CC4)n3)nc2c1"
  Units Of Measure: "nM"
  EC50: 800
- Smi: "O=C(c1ccccc1)c1ccc2[nH]c(NC(=O)c3csc(C4CCN(c5ncnc6nc[nH]c56)CC4)n3)nc2c1"
  Units Of Measure: "nM"
  EC50: 300
- Smi: "N#Cc1ccc(CN2CCC(c3nc(C(=O)Nc4nc5cc(C(=O)c6ccccc6)ccc5[nH]4)cs3)CC2)cc1"
  Units Of Measure: "nM"
  EC50: 300

Values compiled from ChEMBL document CHEMBL1137516.
